- System under test: T1, native Ovr110 protein on tumor cells (ZR-75-1, SKBR3, RL95.2, OVCAR3) (human, UniProt Q7Z7D3 25-282)
- T1 construct: whole, on cells; Endogenous protein of Ovr110-positive tumor cell lines; also called B7-H4; B7x
- T1 sequence (looked up): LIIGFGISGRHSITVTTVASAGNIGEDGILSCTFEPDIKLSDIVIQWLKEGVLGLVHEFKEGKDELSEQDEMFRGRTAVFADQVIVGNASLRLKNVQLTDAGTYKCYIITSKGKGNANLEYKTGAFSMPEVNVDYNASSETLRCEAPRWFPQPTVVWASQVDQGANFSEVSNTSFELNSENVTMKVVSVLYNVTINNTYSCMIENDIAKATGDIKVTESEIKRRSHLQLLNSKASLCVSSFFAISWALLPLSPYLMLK
- Measurement protocol: flow cytometry; hybridoma supernatant; SKBR3 cells
Endpoint name: % Cells Positive

Ovr110.Q27 (antibody, IgG1, V domains shown, Mouse hybridoma MAb; also called Q27.4; Q27.2) VH: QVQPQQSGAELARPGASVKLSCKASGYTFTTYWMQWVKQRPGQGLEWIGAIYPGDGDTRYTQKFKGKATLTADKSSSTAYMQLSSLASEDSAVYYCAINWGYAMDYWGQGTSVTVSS VL: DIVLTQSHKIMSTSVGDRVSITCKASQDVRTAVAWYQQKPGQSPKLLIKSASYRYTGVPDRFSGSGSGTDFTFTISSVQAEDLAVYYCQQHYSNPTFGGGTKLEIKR
87.7%
